Values compiled from PubChem BioAssay (NCI).

Tested on: BT-549 breast
Test: NCI-60 one-dose screen, 48 h (100 = growth as untreated, 0 = no growth, -100 = all killed)
Details: 10 µM unless noted
The panel holds about 83,000 compounds, 20% with a hit somewhere; the sample as a whole holds those more often. The source made the active and inactive calls. Rule for the calls: active = growth percent below 10; inactive = the rest.
Reported Metric: growth

>>> result("CCCCCN1CCN(C(CC(=O)c2ccccc2)C(=O)c2ccccc2)CC1 (stereo not drawn)")
"96.2% (inactive)"
>>> result("CC/C(=N\\Nc1nc2ccccc2n1C)c1ccccn1")
"21% (inactive)"
>>> result("CCCCCCN(CCCCCC)CCC(=O)Nc1ccc(S(=O)(=O)c2ccc(NC(=O)CCN(CCCCCC)CCCCCC)cc2)cc1")
"87.5% (inactive)"
>>> result("COc1cc(/C=C/C(=O)/C=C(/C=C/c2ccc(OC(C)=O)c(OC)c2)OB(F)F)ccc1OC(C)=O")
"37.3% (inactive)"
>>> result("O=C(NCCO)C(F)(F)F")
"106% (inactive)"
>>> result("COc1nc(OC)nc(-c2cc(C(=O)c3ccc(Br)cc3)n3cc(C)cc(C)c23)n1")
"42.7% (inactive)"
>>> result("Clc1ccc(N/N=C(\\c2ccccc2)c2ccccn2)nc1")
"16.7% (inactive)"
>>> result("Cc1cc2c(-c3nc4ccccc4n3C)c(O)c(O)cc2c(O)c1-c1c(C)cc2c(-c3nc4ccccc4n3C)c(O)c(O)cc2c1O")
"20% (inactive)"
>>> result("CSc1nc(N)n2nccc2n1")
"99.6% (inactive)"
>>> result("CCOc1ccc(N(C)c2ccc(/C=C/C3=[N+](C)c4ccccc4C3(C)C)cc2)cc1")
"3.12% (active)"
>>> result("CCN(CC)CCNc1ncnc2c1cnn2-c1ccc(Cl)cc1")
"95.1% (inactive)"
>>> result("CCS(=O)(=O)OCCO[C@H]1Cc2cc3ccc(=O)oc3cc2OC1(C)C")
"100% (inactive)"
>>> result("COc1ccc2sc(-n3nc4nc5n(c(=O)c4c3N)-c3ccccc3Sc3ccccc3-5)nc2c1")
"73.2% (inactive)"
>>> result("CCOC(=O)C1=C(C(F)(F)F)NC(=O)NC1CN1C(=O)c2ccccc2C1=O (stereo not drawn)")
"108% (inactive)"
>>> result("COc1ccc(/C=C/C(=O)/C=C/c2cc3ccccc3[nH]c2=O)cc1")
"64.9% (inactive)"
>>> result("O=c1[nH]c(=S)[nH]c(O)c1/C=C1\\C=Nc2ccccc21")
"76.9% (inactive)"
>>> result("C=C(NC(=O)[C@H](C(C)C)N(C)c1cccc2[nH]ccc12)C(=O)OC")
"95.3% (inactive)"
>>> result("COC(=O)C(N)CC(C)C (stereo not drawn)")
"97.9% (inactive)"
>>> result("O=C(CN1C(=O)NC(c2ccccc2)(c2ccccc2)C1=O)c1ccc(N2CCCC2)cc1")
"66.4% (inactive)"
>>> result("O=C1c2ccccc2CCc2ccccc21")
"99% (inactive)"
>>> result("CC(C)C(=O)c1ccc(Cl)s1")
"104% (inactive)"
>>> result("CC(O)C(N)=O (stereo not drawn)")
"102% (inactive)"
>>> result("C/C(=C\\c1ccc2ccccc2c1)[N+](=O)[O-]")
"64.4% (inactive)"

====

System: UO-31 renal
Assay: NCI-60 one-dose screen, 48 h (100 = growth as untreated, 0 = no growth, -100 = all killed)
Details: 10 µM unless noted
The panel holds about 83,000 compounds, 20% with a hit somewhere; the sample as a whole holds those more often.
# binarize growth: threshold 60% inclusive, high side t, low side f

>>> classification("CC(=O)/C(=C/c1ccc(-c2ccccc2)cc1)C(=O)c1ccccc1")
"t"
>>> classification("COc1nc(OC)nc(-c2cc(-c3cc(OC)c(OC)c(OC)c3)no2)n1")
"t"
>>> classification("COc1cc(C(=O)Nc2ccc(N(C)C)cc2)cc(OC)c1OC")
"t"
>>> classification("CC(=O)NCCN")
"t"
>>> classification("COC1=C(OC)C(=O)c2ccccc2C1=O")
"t"
>>> classification("O=C(Nc1ccc(-n2cc(-c3ccncc3)c(-c3ccc(Cl)c(O)c3)n2)cc1)c1ccc(Cl)c(C(F)(F)F)c1")
"f"
>>> classification("Clc1ccc(N/N=C/c2ccccn2)nc1")
"f"
>>> classification("CCN(CC)C(=O)C1(C)CCCC2(C)c3cc(OC(C)=O)ccc3CCC12 (stereo unspecified)")
"f"
>>> classification("COc1cc(-c2nn(-c3ccc(NC(=O)c4ccc(Cl)c(C(F)(F)F)c4)cc3)cc2-c2ccncc2)ccc1Cl")
"f"
>>> classification("CC(=O)OC1CC2C3CCC4C[C@@H](NC(=O)C=C(C)C)CC[C@]4(C)C3CC[C@]2(C)[C@H]1C(C)N(C)C (stereo partly specified)")
"f"
>>> classification("CCCCN(CCCC)CC(O)CN(CC)CC (stereo unspecified)")
"t"
>>> classification("COc1ccc(NC(=O)/C=C(C)/C=C/C=C(C)/C=C/C2=C(C)CCCC2(C)C)cc1")
"f"
>>> classification("Cc1ccc2c(O)c(O)cc(NC(C)CCCN)c2n1 (stereo unspecified)")
"t"
>>> classification("C[C@@H](c1ccc2c(c1)[nH]c1ccc(Cl)cc12)c1nc2ccccc2[nH]1")
"f"
>>> classification("C#CCCCCCCC[C@@H]1OC(=O)[C@H]([C@@H](C)CC)NC(=O)[C@H]([C@@H](C)CC)NC(=O)CC(=O)[C@@H]1C")
"t"
>>> classification("CSC1=Nc2c(c(C)c(-c3ccccc3)n2CCCCl)C2=NC(=O)CN12")
"f"

====

Test system: BT-549 breast
Assay: NCI-60 one-dose screen, 48 h
Conditions: 10 µM unless noted
About 83,000 compounds went through this panel and 20% of them were active in at least one assay; those are over-represented in the sample as a whole. Activity calls are given as the source filed them. Rule for the calls: active = growth percent below 10; inactive = the rest.
Possible outcomes: y (active), n (inactive)

>>> classification("CCCCCCCCCCCC(=O)OC(C)C(=O)Nc1ccccc1 (stereo not given)")
"n"
>>> classification("COC1NC(Cl)=C(C#N)C(C#N)(C#N)C1(C)C (stereo not given)")
"n"
>>> classification("CCOC(=O)C1=NN(c2ccccc2)C2=NC(=O)/C(=C\\c3cn(-c4ccccc4)nc3-c3cc4ccccc4o3)C(=O)N12")
"n"
>>> classification("CCOC(=O)CSSCC(=O)OCC")
"n"
>>> classification("COC(=O)C(C(=O)OC)C(Br)C(Br)C(Br)c1ccccc1 (stereo not given)")
"n"
>>> classification("COc1cc([C@@H]2c3cc4c(cc3[C@H](O)[C@H]3COC[C@@H]23)OCO4)cc(OC)c1OC")
"n"
>>> classification("O=C(/C=C/c1cccc(O)c1)c1cccc(-n2cc(-c3ccc(Cl)cc3)[nH]c2=O)c1")
"y"
>>> classification("COc1ccc(-c2nc(Nc3nc4ccccc4[nH]3)nc(N)c2C#N)cc1")
"n"
>>> classification("CCOC(=O)C1=C(C(F)(F)F)NC(=S)NC1CN1C(=O)c2ccccc2C1=O (stereo not given)")
"n"
>>> classification("Cc1nnc(-c2cc3c(ccc4ccccc43)oc2=O)c2cn(-c3ccc(Cl)cc3)nc12")
"n"

====

Entries and their growth
Test system: NCI-H226 lung
Assay: NCI-60 one-dose screen, 48 h (100 = growth as untreated, 0 = no growth, -100 = all killed)
Conditions: 10 µM unless noted
About 83,000 compounds went through this panel and 20% of them were active in at least one assay; those are over-represented in the sample as a whole.
Reported Metric: growth (%)

>>> quantitative_readout("COc1ccc(-c2cn3ccnc3c(-c3ccc4ncn(C5CCCCC5)c4c3)n2)cc1")
64.1
>>> quantitative_readout("COc1ccc(-c2nc(SCC(C)C)nc(Nc3ccc([N+](=O)[O-])cc3)c2C#N)cc1")
85.3
>>> quantitative_readout("Oc1ccccc1/C=N/N=C\\c1ccccc1Cl")
76.8
>>> quantitative_readout("O=C1C(=O)c2ccccc2C(O)=C1CCCc1ccc(C2CCCC2)cc1")
36.8
>>> quantitative_readout("Nc1ncn([C@@H]2O[C@H](CO)[C@@H](O)C2(F)F)c(=O)n1")
52.3
>>> quantitative_readout("COc1cc2c(c3c1c(=O)c1cccc(F)c1n3C)C=CC(C)(C)O2")
110
>>> quantitative_readout("O=C(CCC(=O)N(CCO)CCO)N(CCO)CCO")
105
>>> quantitative_readout("COc1ccc(-c2nc(SCC(C)C)nc(Nc3ccc(C(=O)O)cc3)c2C#N)cc1")
87.7
>>> quantitative_readout("CC(=O)Nc1ccc(S(=O)(=O)Cl)cc1")
95.5
>>> quantitative_readout("Cc1nc(NC(=S)Nc2ccc(F)cc2)sc1C(=O)NNC(=S)Nc1ccc(F)cc1")
60.7
>>> quantitative_readout("O=C1c2cc([N+](=O)[O-])ccc2-c2cc(Cl)c(NC(=O)C(F)(F)F)cc21")
101
